Provide the reported IC50 of each item.
# measurement-target: T1, CCR5 (UniProt P51681 1-352, limits assumed)
# T1 construct: whole, on cells; also called CHO-CCR5; HEK-CCR5
# T1 sequence (P51681 whole entry): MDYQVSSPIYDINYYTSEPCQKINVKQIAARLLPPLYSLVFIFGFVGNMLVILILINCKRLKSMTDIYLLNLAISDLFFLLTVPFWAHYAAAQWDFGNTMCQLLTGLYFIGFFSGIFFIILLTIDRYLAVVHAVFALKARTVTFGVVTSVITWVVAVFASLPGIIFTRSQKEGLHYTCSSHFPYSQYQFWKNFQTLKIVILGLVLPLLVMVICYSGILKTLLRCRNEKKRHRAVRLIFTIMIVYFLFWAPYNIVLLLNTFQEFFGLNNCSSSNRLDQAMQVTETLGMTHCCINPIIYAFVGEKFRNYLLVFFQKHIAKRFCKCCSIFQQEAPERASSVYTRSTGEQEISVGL
# test-summary: competitive radioligand binding on whole CHO-CCR5 cells at 4 C, 12 pM [125I]MIP-1α tracer
Give bare numbers, in pM.

Determine from records and report IC50 for LSPVSSQSSA-RANTES (10-68) (P1) (ligand, human, range 33-91; Made by total chemical synthesis; The range 10-68 counts on mature RANTES, not on the precursor; also called mutant P1; variant P1) LSPVSSQSSACCFAYIARPLPRAHIKEYFYTSGKCSNPAVVFVTRKNRQVCANPEKKWVREYINSLEMS 300

Could you now look at the following binder, please?
Determine from records and report IC50 for FSPLSSQSSA-RANTES (10-68) (P2) (ligand, human, range 33-91; Made by total chemical synthesis; The range 10-68 counts on mature RANTES, not on the precursor; also called mutant P2; RANTES P2) FSPLSSQSSACCFAYIARPLPRAHIKEYFYTSGKCSNPAVVFVTRKNRQVCANPEKKWVREYINSLEMS 200
